Assay details: cell viability in Huh7 cells, primary screen, cytotoxicity control for HCV replication inhibitor project, CellTiter-Glo luminescence, basal, 48 h (AID 1143);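 further: Huh7 hepatoma cells carrying a hepatitis C replication reporter with no stimulus; test concentration not given here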
Particulars: Huh7 HCV replicon, higher = more signal, called active from +8 up or from −8 down
Answer not satisfied if z-score is under -1, and satisfied if it is -1 or more.

Compound: CC(=O)NCCCC[C@@H]1NC(=O)[C@@H]2C[C@H](C(=O)NCCCCCC[N+](C)(C)C)[C@H](c3ccc(O)cc3)N2C1=O
Class assignment: satisfied

Is reported z-score greater than or equal to -1 here: COCC(=C=CC[C@@H](O)c1ccc(OCCO)cc1)C[C@@H](O)COCc1ccccc1
satisfied

Is reported z-score greater than or equal to -1 here: CC(C)C[C@H]1NC(=O)[C@@]23C(=O)N[C@@H](Cc4ccccc4)C2[C@H](C)[C@@]2(C)O[C@H]2C3/C=C/C/C=C\CNC(=O)[C@@H]2CCCN2C1=O (some centres undefined)
satisfied

Is reported z-score greater than or equal to -1 here: C=CCC(OC(C)=O)[C@@H]1[C@@H](N(Cc2ccc(-c3cccc(C(F)(F)F)c3)o2)C(=O)Cc2ccc(F)cc2)c2cc(OCCCO)ccc2N1C(=O)c1ccc2ccccc2c1 (some centres undefined)
satisfied

Is reported z-score greater than or equal to -1 here: C=CCC(OC(C)=O)[C@@H]1[C@@H](N(Cc2ccc(-c3cccc(C(F)(F)F)c3)o2)C(=O)Cc2ccc(OC)cc2)c2cc(OCCCO)ccc2N1C(=O)c1ccc2ccccc2n1 (some centres undefined)
not satisfied

Is reported z-score greater than or equal to -1 here: C=CCNC(=O)[C@@H]1[C@H]2C(=O)O[C@H](c3ccccc3)[C@H](c3ccccc3)N2[C@H](c2ccc(O)cc2)[C@@]12C(=O)Nc1ccc(C#CC3(O)CCCCCC3)cc12
satisfied

Is reported z-score greater than or equal to -1 here: COc1cc(OC)c(C(O)C2C=CC3C(=O)N(c4ccccc4)C(=O)C3N2Nc2ccccc2F)cc1Br (centres undefined)
satisfied

Is reported z-score greater than or equal to -1 here: C=C(C(=O)CC[C@@H](OC(C)=O)c1cccc(OCCO)c1)C(C)C
satisfied

Is reported z-score greater than or equal to -1 here: CC(C)C[C@@H]1NC(=O)[C@@]23C(=O)N[C@@H](Cc4ccccc4)C2[C@H](C)[C@@]2(C)O[C@H]2C3/C=C/C/C=C\CNC(=O)[C@@H](CC(C)C)NC1=O (some centres undefined)
satisfied

Is reported z-score greater than or equal to -1 here: COCCOC(=O)N1C(=O)[C@@]2(c3cc(C#CC4=CCCCC4)ccc31)[C@H](c1ccccc1OCCO)N1[C@H](c3ccccc3)[C@H](c3ccccc3)OC(=O)[C@H]1[C@@H]2C(N)=O
not satisfied

###

Assay details: S. cerevisiae growth modulation with rapamycin, primary screen, strain BY4716, OD600, 96 h (AID 1091); further: test concentration not given here
Particulars: called active from +8 up or from −8 down
The source made the active and inactive calls.
Log the outcome using a class from active, inactive

Compound: COc1ccccc1CN1C(=O)c2ccccc2[C@](Cc2ccccc2I)(C(=O)NCCCN(C)C)[C@@H]1c1ccc(CO)cc1
Class assignment: inactive
--
Compound: COc1ccc([Si](C)(C)[C@H]2[C@H](CCO)O[C@@]3(C(=O)N(Cc4ccc(N5CCOC5=O)cc4)c4ccccc43)[C@@H]2C)cc1
Class assignment: active

Kindly consider the entry below.
What classification did C=CCC(OC(C)=O)[C@@H]1[C@@H](N(Cc2ccc(-c3cccc(C(F)(F)F)c3)o2)C(=O)Cc2ccc(F)cc2)c2cc(OCCCO)ccc2N1C(=O)c1ccc2ccccc2c1 (stereo partly drawn) end up with in this test?
inactive
